Reported Activity by item:
Assay: Induction of apoptosis in retinoid-resistant p53 null human HL60R cells assessed as DNA fragmentation at 0.1 uM after 24 hrs by acridine orange staining method
Format: functional
PROPERTY: Activity (%)

1) O=C(O)c1ccc2cc(-c3ccc(O)c(C45CC6CC(CC(C6)C4)C5)c3)ccc2c1 [O-DEMETHYLATED ADAPALENE]    73
2) O=C(O)/C=C/c1ccc(-c2ccc(O)c(C34CC5CC(CC(C5)C3)C4)c2)c(Cl)c1    51
3) O=C(O)c1ccc2c(Cl)c(-c3ccc(O)c(C45CC6CC(CC(C6)C4)C5)c3)ccc2c1    62
4) O=C(O)/C=C/c1ccc(-c2ccc(O)c(C34CC5CC(CC(C5)C3)C4)c2)cc1 [ADAROTENE]    90

----------
Overview of recorded Activity for various compounds
Assay: Induction of apoptosis in retinoid-resistant p53 null human HL60R cells assessed as DNA fragmentation at 1 uM after 24 hrs by acridine orange staining method
Assay type: functional
PROPERTY: Activity (%)

1) O=C(O)/C=C/c1ccc(-c2ccc(O)c(C34CC5CC(CC(C5)C3)C4)c2)c(Cl)c1    94
2) O=C(O)c1ccc2c(Cl)c(-c3ccc(O)c(C45CC6CC(CC(C6)C4)C5)c3)ccc2c1    94
3) O=C(O)/C=C/c1ccc(-c2ccc(O)c(C34CC5CC(CC(C5)C3)C4)c2)cc1    98
4) O=C(O)c1ccc2cc(-c3ccc(O)c(C45CC6CC(CC(C6)C4)C5)c3)ccc2c1    98

----------
Test system: PC-3
Assay: Induction of apoptosis in human PC3 cells assessed as decrease in ATP level after 72 hrs by luminescence assay
Type: functional, cell-based
PROPERTY: Activity

1) O=C(O)CCc1ccc(-c2ccc(O)c(C34CC5CC(CC(C5)C3)C4)c2)c(Cl)c1    Dose-dependent effect
2) O=C(O)/C=C/c1ccc(-c2ccc(O)c(C34CC5CC(CC(C5)C3)C4)c2)nn1    Dose-dependent effect
3) O=C(O)/C=C/c1cnc(-c2ccc(O)c(C34CC5CC(CC(C5)C3)C4)c2)cn1    Dose-dependent effect
4) CC(=O)Oc1ccc(-c2ccc(/C=C/C(=O)O)cn2)cc1C12CC3CC(CC(C3)C1)C2    Dose-dependent effect
5) O=C(O)CS(=O)(=O)c1ccc(-c2ccc(O)c(C34CC5CC(CC(C5)C3)C4)c2)c(Cl)c1    Dose-dependent effect

----------
System: HT-29
Experiment: Induction of apoptosis in human HT-29 cells assessed as decrease in ATP level after 72 hrs by luminescence assay
Format: functional, cell-based
PROPERTY: Activity

1) O=C(O)/C=C/c1ccc(-c2ccc(O)c(C34CC5CC(CC(C5)C3)C4)c2)nn1    Dose-dependent effect
2) O=C(O)/C=C/c1cnc(-c2ccc(O)c(C34CC5CC(CC(C5)C3)C4)c2)cn1    Dose-dependent effect
3) O=C(O)CS(=O)(=O)c1ccc(-c2ccc(O)c(C34CC5CC(CC(C5)C3)C4)c2)c(Cl)c1    Dose-dependent effect
4) O=C(O)/C=C/c1cnc(-c2ccc(O)c(C34CC5CC(CC(C5)C3)C4)c2)nc1    Dose-dependent effect
5) O=C(O)/C=C/c1ccc(-c2ccc(O)c(C34CC5CC(CC(C5)C3)C4)c2)cn1    Dose-dependent effect
